Molecular target: UniProt P53341
Sequence (P53341 whole entry): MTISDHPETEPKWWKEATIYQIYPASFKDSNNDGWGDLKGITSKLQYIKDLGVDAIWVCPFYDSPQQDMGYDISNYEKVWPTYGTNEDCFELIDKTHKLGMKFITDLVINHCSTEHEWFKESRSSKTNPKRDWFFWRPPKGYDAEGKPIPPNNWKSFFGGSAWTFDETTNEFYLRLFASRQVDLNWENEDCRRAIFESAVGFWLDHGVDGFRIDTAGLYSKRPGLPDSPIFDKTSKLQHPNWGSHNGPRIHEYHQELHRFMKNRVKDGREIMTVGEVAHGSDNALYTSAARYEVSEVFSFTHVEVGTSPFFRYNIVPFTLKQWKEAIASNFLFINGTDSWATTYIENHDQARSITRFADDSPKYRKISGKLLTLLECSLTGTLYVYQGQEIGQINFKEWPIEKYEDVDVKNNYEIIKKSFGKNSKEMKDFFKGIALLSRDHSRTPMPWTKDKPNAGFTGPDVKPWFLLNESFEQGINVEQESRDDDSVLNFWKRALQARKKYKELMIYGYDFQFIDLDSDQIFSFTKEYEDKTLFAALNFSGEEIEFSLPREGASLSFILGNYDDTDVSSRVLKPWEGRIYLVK
Experiment: biochemical
Type: biochemical
Settings: mean ± SD, quadruplicate; PBS pH 6.8, 37°C, 5% DMSO; read-out: α-glucosidase inhibition (IC50 μM)
property-measured: IC50 (µM)

Here's what some known entries look like.
Cc1cccc(/C=C2\C[C@@]3(C)C(CC[C@]4(C)C3CC=C3C5CC(C)(C)CC[C@]5(C(=O)O)CC[C@]34C)C(C)(C)[C@H]2O)c1 (stereo partly shown) [Compound 4c]: 0.86
CC1(C)CC[C@]2(C(=O)O)CC[C@]3(C)C(=CCC4[C@@]5(C)C/C(=C\c6ccccc6[N+](=O)[O-])[C@H](O)C(C)(C)C5CC[C@]43C)C2C1 (stereo partly shown) [Compound 4q]: 1.17
CC1(C)CC[C@]2(C(=O)O)CC[C@]3(C)C(=CCC4[C@@]5(C)C/C(=C\c6cccc(F)c6)[C@H](O)C(C)(C)C5CC[C@]43C)C2C1 (stereo partly shown) [Compound 4i]: 0.4

P: CC1(C)CC[C@]2(C(=O)O)CC[C@]3(C)C(=CCC4[C@@]5(C)C/C(=C\c6ccc(Br)cc6)[C@H](O)C(C)(C)C5CC[C@]43C)C2C1 (stereo partly shown) [Compound 4p]
Q: Cc1ccccc1/C=C1\C[C@@]2(C)C(CC[C@]3(C)C2CC=C2C4CC(C)(C)CC[C@]4(C(=O)O)CC[C@]23C)C(C)(C)[C@H]1O (stereo partly shown) [Compound 4b]
R: Cc1ccc(/C=C2\C[C@@]3(C)C(CC[C@]4(C)C3CC=C3C5CC(C)(C)CC[C@]5(C(=O)O)CC[C@]34C)C(C)(C)[C@H]2O)cc1 (stereo partly shown) [Compound 4d]
S: COc1ccc(/C=C2\C[C@@]3(C)C(CC[C@]4(C)C3CC=C3C5CC(C)(C)CC[C@]5(C(=O)O)CC[C@]34C)C(C)(C)[C@H]2O)cc1 (stereo partly shown) [Compound 4g]
Task: Parameters: sort_field (IC50), sort_dir (desc). Output the labels ranked as instructed.
Result: S, R, P, Q
